Attribution: patent US20250085273A1

- System: 3-dpf Zebrafish Embryos Challenged with LPS (P. aeruginosa 60 μg/mL)
- Type: in vivo, Danio rerio
- Condition summary: initial 3-dpf screen shown for reference; P. aeruginosa LPS 60 μg/mL; compound 10 μM
Property: 3 dpf Embryos Percent Rescue (Mort + Tail Edema) (%)
The answer is to be given in %; state only the numeric part.

Some solved cases for reference:
| Molecule | System | Value observed |
| --- | --- | --- |
| Cc1ccc(Sc2ccccc2N2CCNCC2)c(C)c1 | 3-dpf Zebrafish Embryos Challenged with LPS (P. aeruginosa 60 μg/mL) | 63 |
| O=C(c1ccc(F)cc1)C1CCN(CCn2c(=O)[nH]c3ccccc3c2=O)CC1 [Compound 437, Ketanserin (tartrate)] | 3-dpf Zebrafish Embryos Challenged with LPS (P. aeruginosa 60 μg/mL) | 100 |

Prompt line: Given Nc1ccc(S(=O)(=O)c2ccc(N)cc2)cc1 , respond with its 3 dpf Embryos Percent Rescue (Mort + Tail Edema).
Response line: 69

Prompt line: Given O=C(Nc1nc(-c2cc(Cl)cs2)c(N2CCN(C3CCCCC3)CC2)s1)c1cnc(N2CCC(C(=O)O)CC2)c(Cl)c1 , respond with its 3 dpf Embryos Percent Rescue (Mort + Tail Edema).
Response line: 75
